Hello, the source for this data is patent US8796303B2, in case you need it.

Experiment: Aqueous solubility by laser nephelometry
Format: physicochemical
Settings: pH 2, simulated gastric fluid, kinetic from dmso stock; pH2 buffer, 1% DMSO, 30 minute incubation at 25° C., range 1.6-100; read-out: Solubility at pH2
Endpoint: solubility at 30 min

If you can, please state the reported solubility at 30 min value of Cc1nocc1C(=O)N1CCN2C(=O)c3ncccc3CC12C1CCCCC1 (stereo not shown) .
> 100 µg/mL

solubility at 30 min for Cc1nocc1C(=O)N1CCN2C(=O)c3ncccc3CC12c1ccc(F)cc1 (stereo not shown) ?
> 100 µg/mL

For the compound shown here, COc1ccc(C23Cc4cccnc4C(=O)N2CCN3C(=O)c2conc2C)cc1 (stereo not shown) , give the reported solubility at 30 min.
> 100 µg/mL

Tell me the measured solubility at 30 min of Cc1nocc1C(=O)N1CCN2C(=O)c3nccnc3CC12c1ccc(F)c(F)c1 (stereo not shown) , please.
> 100 µg/mL

Suppose we examine the compound Cc1cc(C23Cc4nccnc4C(=O)N2CCN3C(=O)c2conc2C)ccc1F (stereo not shown) ; what solubility at 30 min value has been reported?
50 to 100 µg/mL

Requested field: solubility at 30 min. Item: Cc1cc([C@]23Cc4cccnc4C(=O)N2CCN3C(=O)c2conc2C)ccc1F (single isomer, unassigned)
50 to 100 µg/mL

Please give the measured solubility at 30 min for this compound: O=C(c1conc1C(F)(F)F)N1CCN2C(=O)c3ncccc3CC12c1ccc(Cl)cc1 (stereo not shown)
50 to 100 µg/mL

For the compound shown here, Cc1nocc1C(=O)N1CCN2C(=O)c3ncccc3CC12c1ccccc1Cl (stereo not shown) , give the reported solubility at 30 min.
> 100 µg/mL

Please report the recorded solubility at 30 min for Cc1cc(C23Cc4cccnc4C(=O)N2CCN3C(=O)c2conc2C)ccc1F (stereo not shown) .
25 to 50 µg/mL

Reported solubility at 30 min, compound Cc1nocc1C(=O)N1CCN2C(=O)c3ncccc3CC12c1ccc(F)c(F)c1 (stereo not shown) : ____
25 to 50 µg/mL

###

Assay: Aqueous solubility by laser nephelometry
Type: physicochemical
Settings: pH 6.5, aqueous buffer, kinetic from dmso stock; pH6.5 buffer, 1% DMSO, 30 minute incubation at 25° C., range 1.6-100; read-out: Solubility at pH6.5
Endpoint: solubility at 30 min

Which solubility at 30 min value belongs to Cc1nocc1C(=O)N1CCN2C(=O)c3ncccc3CC12c1ccc2c(c1)CCO2 (stereo not shown) ?
50 to 100 µg/mL

Fill in the blank: the reported solubility at 30 min of Cc1nocc1C(=O)N1CCN2C(=O)c3ncccc3CC12C1CCC(F)(F)CC1 (stereo not shown) is ____.
> 100 µg/mL

Tell me the measured solubility at 30 min of Cc1nocc1C(=O)N1CCN2C(=O)c3ncccc3CC12c1ccccc1Cl (stereo not shown) , please.
> 100 µg/mL

Could you share which solubility at 30 min value was measured for Cc1nocc1C(=O)N1CCN2C(=O)c3ncccc3C[C@]12c1ccc(Cl)cc1 (single isomer, unassigned) ?
> 100 µg/mL

State the recorded solubility at 30 min for this entry: Cc1nocc1C(=O)N1CCN2C(=O)c3ncccc3CC12c1ccc(F)c(F)c1 (stereo not shown)
50 to 100 µg/mL

Report solubility at 30 min for Cc1cc([C@]23Cc4cccnc4C(=O)N2CCN3C(=O)c2conc2C)ccc1F (single isomer, unassigned) please.
> 100 µg/mL

Which value of solubility at 30 min has been reported for O=C(c1ccno1)N1CCN2C(=O)c3cccc(F)c3CC12c1ccc(Cl)cc1 (stereo not shown) [Compound 1-088, reference compound] in the records?
3.1 to 6.3 µg/mL

Entry O=C(c1ccno1)N1CCN2C(=O)c3ccccc3CC12c1ccc(Cl)cc1 (stereo not shown) [Compound 1-025, reference compound] : reported solubility at 30 min = ?
3.1 to 6.3 µg/mL

Look at this compound and give its reported solubility at 30 min. Cc1cc(C23Cc4nccnc4C(=O)N2CCN3C(=O)c2conc2C)ccc1F (stereo not shown)
> 100 µg/mL

Field request: solubility at 30 min | item: Cc1nocc1C(=O)N1CCN2C(=O)c3nccnc3CC12c1ccc(Cl)cc1 (stereo not shown)
50 to 100 µg/mL
